Target: solubilized C5a receptor
Run description: Inhibition of C5a binding to solubilized or purified receptor by nucleotides
Design: species or system human
Condition info: inhibition of C5a binding, digitonin solubilized membranes; read-out: IC₅₀
Metric: IC50 (nM)
The response must be a number in nM with no trailing unit.

Recorded IC50 (compound Nc1nc2c(ncn2[C@@H]2O[C@H](COP(=O)(O)OP(=O)(O)OP(O)(O)=S)[C@@H](O)[C@H]2O)c(=O)[nH]1 ): 10
